Target: Calmodulin-1 (Homo sapiens) (UniProt P0DP23)
Assay: CALM1 binders on microarrays, EGTA buffer, profiling panel, biochemical, small-molecule microarray, Cy5-labelled CALM1 (AID 1111);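 further: labelled calmodulin applied in Tris saline Tween buffer holding calcium plus EGTA and DTT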
Conditions: Cy5-CALM1 binding fluorescence, higher = more signal
Think of 2 as a floor: if composite z-score stands on it or above, it is Yes; beneath it, No.

Ask: composite z-score >= 2 for CCCC[C@H]1OB(O)C[C@H]2C1=C(COC)C[C@H]1C(=O)N(C)C(=O)[C@H]12 ?
Result: No

Ask: Confirm if composite z-score reported for the compound CO[C@H]1O[C@H](CO)[C@@H](OC(=O)Nc2ccccc2)[C@H](OC(=O)Nc2ccccc2)[C@@H]1OC(=O)Nc1ccccc1 is 2 or above.
Result: No

Ask: Check this compound for composite z-score at or above 2: COCCOC(=O)N1C(=O)[C@@]2(c3cc(C#CCCO)ccc31)[C@H](C(=O)N1CCCCCCC1)[C@H]1C(=O)O[C@H](c3ccccc3)[C@H](c3ccccc3)N1[C@@H]2c1ccc(OCCO)cc1
Result: Yes

Ask: Does COC(=O)[C@H](Cc1ccccc1)N[C@@H](/C=C/C1CC1)[C@H](O)Cc1ccccc1 have a reported composite z-score of at least 2?
Result: No

Ask: Is the recorded value of composite z-score equal to or greater than 2 for this compound? COCCOC(=O)N1C(=O)[C@@]2(c3cc(C#CCC(C(=O)OC)C(=O)OC)ccc31)[C@H](C(=O)Nc1nc3ccccc3s1)[C@H]1C(=O)O[C@H](c3ccccc3)[C@H](c3ccccc3)N1[C@@H]2c1ccccc1OCCO
Result: No
